# Tested on: human pancreatic carcinoma CRL 1420 cell line
# Experiment: Colony formation assay, human pancreatic carcinoma CRL 1420
# Assay type: cell-based
# Test conditions: Homo sapiens, 24 h, Table VII; 24 h treatment
Exercise: state measured IC50 for each of the compounds provided.
Entry format: amount then unit.

Which measured IC50 value corresponds to CCN1C(=CC=c2sc(=Cc3ccc4ccccc4[n+]3CC)n(CC)c2=O)Sc2ccc3ccccc3c21 ?
0.05 µg/mL

Given the entry CCN1C(=CC=c2sc(=Cc3sc4c5ccccc5ccc4[n+]3CCO)n(CC)c2=O)Sc2ccc3ccccc3c21 , report its measured IC50.
0.18 µg/mL

Recorded IC50 of CCN1CCSC1=CC=c1sc(=Cc2sc3ccccc3[n+]2CCOC)n(CC)c1=O , please.
0.082 µg/mL

For the compound shown here, CCn1c(=Cc2sc3ccccc3[n+]2CC)sc(=CC=C2SCCN2C)c1=O , give the reported IC50.
0.045 µg/mL

Value lookup for IC50; key = C=CCn1c(=Cc2cc[n+](CC)c3ccccc23)sc(=CC=C2C=Cc3ccccc3N2CC)c1=O
0.045 µg/mL

Need IC50, item CCN1C(=CC=c2sc(=Cc3scc[n+]3CC)n(CC)c2=O)Sc2ccc3ccccc3c21
0.05 µg/mL

May I ask what IC50 has been recorded for CCN1C(=CC=c2sc(=Cc3sc4ccc5ccccc5c4[n+]3CC)n(CC)c2=O)N(CC)c2ccccc21 ?
0.03 µg/mL

Please report the recorded IC50 for CCN1CCSC1=CC=c1sc(=Cc2sc3ccc(C)cc3[n+]2CC)n(CC)c1=O .
0.04 µg/mL
